All values here come from patent US8119624B2.

# Study System: Full-length glucokinase (beta cell isoform) (Homo sapiens, UniProt P35557)
# Construct: Full-length glucokinase (beta cell isoform) was His-tagged at N-terminus; His tag (N); made in house
# Assay Info: Glucokinase biochemical assay (PK/LDH-coupled, NADH depletion at 340 nm): % activation, EC50, % max activation
# Run Parameters: 5 mM glucose; GK activation; read-out: EC50
pEC50: −log10 of the molar value.
Measure: pEC50

Reference set, count: 3
Compound	Study System	pEC50
CN(C)C(=O)c1ccc(Oc2cc(C(=O)Nc3cnn(C)n3)cc3c2CC(C)(C)O3)cc1 [Example 153]	Full-length glucokinase (beta cell isoform) (Homo sapiens, UniProt P35557)	6.82
Cc1ccc(NC(=O)c2cc(Oc3ccc(S(C)(=O)=O)cc3)c3oc(C)cc3c2)nc1 [Example 337]	Full-length glucokinase (beta cell isoform) (Homo sapiens, UniProt P35557)	5.52
Cc1ccc(NC(=O)c2cc(Oc3ccc(S(C)(=O)=O)cc3)c3c(c2)OC(C)(C)C3)nn1 [Example 21]	Full-length glucokinase (beta cell isoform) (Homo sapiens, UniProt P35557)	5.41

A. Cc1cc2c(Oc3ccc(S(C)(=O)=O)cc3)cc(C(=O)Nc3ccc(F)cn3)cc2o1 [Example 256]
B. Cc1ccc(NC(=O)c2cc(Oc3ccc(S(C)(=O)=O)cc3)c3sccc3c2)nc1 [Example 363]
C. Cc1ccc(NC(=O)c2cc(Oc3ccc(S(C)(=O)=O)cc3)c3sc(C)cc3c2)nc1 [Example 329]
D. COc1cnc(NC(=O)c2cc(Oc3ccc(S(C)(=O)=O)cc3)c3cc(C)oc3c2)cn1 [Example 263]
E. Cc1ccc(NC(=O)c2cc3c(c(Oc4ccc(S(C)(=O)=O)cc4)c2)CCO3)nc1 [Example 8]
Exercise: Order the records so the highest pEC50 appears first and the lowest last. A ranking is expressed here by listing the labels in the requested order.
Key: D, C, E, A, B
(D: 6.08, C: 5.80, E: 5.55, A: 5.35, B: 5.12)

---

# Study System: Full-length glucokinase (beta cell isoform) (Homo sapiens)
# Construct: Full-length glucokinase (beta cell isoform) was His-tagged at N-terminus; His tag (N); made in house
# Sequence (P35557 1-465): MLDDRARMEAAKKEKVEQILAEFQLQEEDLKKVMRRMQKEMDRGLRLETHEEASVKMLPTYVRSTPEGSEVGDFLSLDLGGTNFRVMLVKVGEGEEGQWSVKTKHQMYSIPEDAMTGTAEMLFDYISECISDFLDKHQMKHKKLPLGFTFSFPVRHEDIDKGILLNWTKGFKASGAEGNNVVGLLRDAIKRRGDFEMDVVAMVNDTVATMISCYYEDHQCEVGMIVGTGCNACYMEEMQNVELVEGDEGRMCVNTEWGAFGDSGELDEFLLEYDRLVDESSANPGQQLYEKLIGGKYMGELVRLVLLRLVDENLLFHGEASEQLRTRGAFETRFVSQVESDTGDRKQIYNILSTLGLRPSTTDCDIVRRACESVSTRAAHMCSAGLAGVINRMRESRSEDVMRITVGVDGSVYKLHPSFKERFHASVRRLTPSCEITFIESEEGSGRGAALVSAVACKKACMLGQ
# Assay Info: Glucokinase biochemical assay (PK/LDH-coupled, NADH depletion at 340 nm): % activation, EC50, % max activation
# Run Parameters: 10 uM compound; 5 mM glucose; % Activation=(Va/Vo−1)×100; read-out: % Activation at 10 uM
Measure: activation at 10 µM (%)

Reference set, count: 8
Molecule	Value Observed
Cn1ccc(NC(=O)c2cc(Oc3ccc(C(=O)N4CCC4)cc3F)c3c(c2)OC(C)(C)C3)n1	164
COCC1(C)Cc2c(Oc3ccc(S(C)(=O)=O)cc3)cc(C(=O)Nc3ccc(C)cn3)cc2O1 (stereo not shown)	118
CN(C)C(=O)c1ncc(Oc2cc(C(=O)Nc3ccn(C)n3)cc3c2CC(C)(C)O3)cn1	112
Cc1cc2c(Oc3ccc(S(C)(=O)=O)cc3)cc(C(=O)Nc3cccc(CO)n3)cc2o1	6.4
COc1cnc(NC(=O)c2cc(Oc3ccc(S(C)(=O)=O)cc3)c3cc(C)oc3c2)cn1	157
Cn1ncc(NC(=O)c2cc(Oc3ccc(C(=O)N4CCC4)nc3)c3c(c2)OC(C)(C)C3)n1	125
CN(CCO)C(=O)c1ccc(Oc2cc(C(=O)Nc3ccn(C)n3)cc3c2CC(C)(C)O3)cc1F	149
Cc1cc2c(Oc3ccc(S(C)(=O)=O)cc3)cc(C(=O)Nc3ccc(CO)cn3)cc2o1	81.4

a. CN(C)C(=O)c1ccc(Oc2cc(C(=O)Nc3ccn(C)n3)cc3c2CC(C)(C)O3)nc1
b. CN(C)C(=O)c1ccc(Oc2cc(C(=O)Nc3ccc(C(N)=O)cn3)cc3c2CC(C)(C)O3)cc1F
c. Cn1ccc(NC(=O)c2cc(Oc3cc(F)cc(F)c3)c3c(c2)OC(C)(C)C3)n1
d. Cn1ccc(NC(=O)c2cc(Oc3ccc(C(=O)O)nc3)c3c(c2)OC(C)(C)C3)n1
Exercise: Order the records so the highest activation at 10 µM appears first and the lowest last. A ranking is expressed here by listing the labels in the requested order.
Key: c, a, d, b
